- target-or-test-system: human glucagon receptor (human, UniProt P47871 26-477)
- Sequence (P47871 26-477): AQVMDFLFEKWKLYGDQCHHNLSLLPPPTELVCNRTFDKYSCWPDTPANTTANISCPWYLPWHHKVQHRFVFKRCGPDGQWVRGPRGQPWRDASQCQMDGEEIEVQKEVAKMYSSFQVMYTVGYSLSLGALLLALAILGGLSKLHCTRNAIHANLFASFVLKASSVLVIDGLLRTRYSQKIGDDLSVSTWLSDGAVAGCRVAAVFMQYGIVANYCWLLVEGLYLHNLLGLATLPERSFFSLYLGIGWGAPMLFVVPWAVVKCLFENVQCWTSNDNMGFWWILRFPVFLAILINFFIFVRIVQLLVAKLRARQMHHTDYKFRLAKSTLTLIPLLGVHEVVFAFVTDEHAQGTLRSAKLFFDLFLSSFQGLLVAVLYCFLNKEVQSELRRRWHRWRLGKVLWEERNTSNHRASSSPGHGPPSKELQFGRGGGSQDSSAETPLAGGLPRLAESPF
- test-method-notes: cell-based or functional assay
# cAMP EC50 values compiled below

Please review the entries below; each comes with its answer.
Find the recorded cAMP EC50 belonging to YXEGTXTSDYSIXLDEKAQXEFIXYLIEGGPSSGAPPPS (Aib2; αMeF(2F)6; αMeL13; K17((2-[2-(2-Amino-ethoxy)-ethoxy]-acetyl)2-(γ-Glu)-CO-(CH2)18-CO2H); Aib20; D-Glu24; C-terminal amide) [Example 1] and report it. > 11.4 µM

Repeat for the following binder: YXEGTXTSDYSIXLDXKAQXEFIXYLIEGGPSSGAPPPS (Aib2; αMeF(2F)6; αMeL13; Orn16; K17((2-[2-(2-Amino-ethoxy)-ethoxy]-acetyl)2-(γ-Glu)-CO-(CH2)18-CO2H); Aib20; D-Glu24; C-terminal amide) [Example 3] > 10.9 µM

Repeat for the following binder: YXEGTXTSDVSIXLDXKAQXEFIXXLIEGGPSSGAPPPS (Aib2; αMeF(2F)6; αMeL13; Orn16; K17((2-[2-(2-Amino-ethoxy)-ethoxy]-acetyl)2-(γ-Glu)-CO-(CH2)16-CO2H); Aib20; D-Glu24; αMeY25; C-terminal amide) [Example 5] > 10.9 µM

***
Find the recorded cAMP EC50 belonging to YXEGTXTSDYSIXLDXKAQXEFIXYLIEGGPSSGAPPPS (Aib2; αMeF(2F)6; αMeL13; Orn16; K17((2-[2-(2-Amino-ethoxy)-ethoxy]-acetyl)2-(γ-Glu)-CO-(CH2)16-CO2H); Aib20; D-Glu24; C-terminal amide) [Example 2] and report it. > 10.9 µM

Repeat for the following binder: YXEGTXTSDXSIXLDXKAQXEFIXXLIEGGPSSGAPPPS (Aib2; αMeF(2F)6; 4Pal10; αMeL13; Orn16; K17((2-[2-(2-Amino-ethoxy)-ethoxy]-acetyl)2-(γ-Glu)-CO-(CH2)16-CO2H); Aib20; D-Glu24; αMeY25; C-terminal amide) [Example 4] > 10.9 µM
